Data origin, for the record: patent US20230303542A1

Test: Dynamic solubility of Form II in mixed solvents, dissolution observed visually
Type: physicochemical
Details: volume ratio 1/2, organic solvent or mixture, thermodynamic from solid; MeOH/Diethyl ether, volume ratio ½; RT; read-out: Solubility
MEASURE NAME: solubility at 30 min

Inquiry: Consider the compound shown here: CC(=O)N1CCC(COc2cc(F)c3c(=O)[nH]c(CSC4CCOCC4)nc3c2)CC1 [Form II] What is its recorded solubility at 30 min?
Reply text: < 2000 µg/mL

----------
Assay: Dynamic solubility of Form II in mixed solvents, dissolution observed visually
Type: physicochemical
Settings: organic solvent or mixture, thermodynamic from solid; MeOH/Anisole (2/1); 25° C.
MEASURE NAME: solubility

Inquiry: Consider the molecule shown here: CC(=O)N1CCC(COc2cc(F)c3c(=O)[nH]c(CSC4CCOCC4)nc3c2)CC1 [Form II] What is its recorded solubility?
Reply text: 96 to 106 mg/mL
